assay.name: Drug repurposing screens with cells derived from glioblastoma tumor samples (AID 1345199); further: on the % scale 0 is the no-effect control and ±100 the full control effect
condition.info: GBM patient neurospheres viability, ATP luminescence, 48 h; at 45.9 µM (top of the series); tumour line D
Inconclusive results are not listed.
For each of the molecules below, state its activity, negative = cell killing.
Numeric only. Scale: %

Query :: Requested field: activity, negative = cell killing. Item: `COc1ccc2c3c1O[C@H]1[C@@H](O)C=C[C@H]4[C@@H](C2)NCC[C@@]341`
Result :: -17.8

Query :: Requested field: activity, negative = cell killing. Item: `CNC(=O)OCC[N+](C)(C)C`
Result :: -20

Query :: Requested field: activity, negative = cell killing. Item: `S=C=S`
Result :: -16.5

Hey, just so you know, these numbers are from PubChem BioAssay (NCATS).
